Consider the following compounds; for each one, report its IC50.
# Tested on: NCI-H292;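 note: growth inhibition of NCI-H292 cells, read out with a cell viability assay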
# protocol: cells
# Type: functional, cell-based, Homo sapiens
# measurementParameters: Homo sapiens, NCI-H292
# Description: SANGER: Inhibition of human NCI-H292 cell growth in a cell viability assay.

Lookup: IC50 / NCI-H292 / `CCOc1nc(NC(=O)Cc2cc(OC)ccc2OC)cc(N)c1C#N`
> 10 µM

Lookup: IC50 / NCI-H292 / `C=CCc1cccc(/C=N/NC(=O)CN2CCN(Cc3ccccc3)CC2)c1O`
> 2.56 µM

Lookup: IC50 / NCI-H292 / CN(Cc1cnc2nc(N)nc(N)c2n1)c1ccc(C(=O)N[C@@H](CCC(=O)O)C(=O)O)cc1 [METHOTREXATE]
> 0.2 µM

###

# System: SH-4
# protocol: cells
# Type: functional, cell-based, Homo sapiens
# measurementParameters: Homo sapiens, SH-4
# Description: SANGER: Inhibition of human SH-4 cell growth in a cell viability assay.
reportedMetric: IC50

Consider the compound `O=C1N=C(NCc2cccs2)S/C1=C\c1ccc2ncccc2c1` and give its measured IC50.
> 5 µM

Consider the compound `CN1CCN(CCOc2cc(OC3CCOCC3)c3c(Nc4c(Cl)ccc5c4OCO5)ncnc3c2)CC1` and give its measured IC50.
> 2 µM

Consider the compound `COc1ccc(C2=N[C@@H](c3ccc(Cl)cc3)[C@@H](c3ccc(Cl)cc3)N2C(=O)N2CCNC(=O)C2)c(OC(C)C)c1` and give its measured IC50.
> 8 µM

Consider the compound `Nc1ccn([C@@H]2O[C@H](CO)[C@@H](O)[C@@H]2O)c(=O)n1` and give its measured IC50.
> 2 µM

###

# System: ES8
# protocol: cells
# Format: functional, cell-based, Homo sapiens
# measurementParameters: Homo sapiens, ES8
# Description: SANGER: Inhibition of human ES8 cell growth in a cell viability assay.
reportedMetric: IC50

Consider the compound O=C(NOCC1CC1)c1ccc(F)c(F)c1Nc1ccc(I)cc1Cl [CI-1040] and give its measured IC50.
> 10 µM

Consider the compound `CCOc1nc(NC(=O)Cc2cc(OC)ccc2OC)cc(N)c1C#N` and give its measured IC50.
> 10 µM

Consider the compound COc1cc(F)c(F)c(Nc2ccc(I)cc2F)c1NS(=O)(=O)C1(CC(O)CO)CC1 (stereo not drawn) and give its measured IC50.
> 5 µM

###

Consider the following molecules; for each one, report its pIC50.
# Tested on: SF-539;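 note: Read-out is a cell viability assay, with IC50 reflecting inhibition of cell growth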
# protocol: cells
# Format: functional, cell-based, Homo sapiens
# measurementParameters: Homo sapiens, SF-539
# Description: SANGER: Inhibition of human SF539 cell growth in a cell viability assay.
# reply with the number alone; pIC50 is -log10 of concentration in mol/L

Consider the molecule C=C1C(=O)O[C@@H]2C3O[C@]3(C)CC/C=C(\C)CC[C@@H]12 (stereo partly drawn) and give its measured pIC50.
5.61

Consider the molecule COc1cc([C@@H]2c3cc4c(cc3[C@@H](O[C@@H]3O[C@@H]5CO[C@@H](C)O[C@H]5[C@H](O)[C@H]3O)[C@H]3COC(=O)[C@H]23)OCO4)cc(OC)c1O [ETOPOSIDE] and give its measured pIC50.
5.79

###

# System: A549
# protocol: cells
# Assay type: functional, cell-based
# measurementParameters: Homo sapiens
# Description: SANGER: Inhibition of human A549 cell growth in a cell viability assay.
pIC50: −log10 of the molar value.
Consider the following compounds; for each one, report its pIC50.

Consider the compound O=C(c1cc(Cc2n[nH]c(=O)c3ccccc23)ccc1F)N1CCN(C(=O)C2CC2)CC1 [OLAPARIB] and give its measured pIC50.
< 5.30

Consider the compound C=CCNC1=C2C[C@@H](C)C[C@H](OC)[C@H](O)[C@@H](C)/C=C(\C)[C@H](OC(N)=O)[C@@H](OC)/C=C\C=C(/C)C(=O)NC(=CC1=O)C2=O [TANESPIMYCIN] and give its measured pIC50.
> 8.41

Consider the compound O=c1cc(-c2cccc3c2Sc2ccccc2S3)oc(N2CCOCC2)c1 [KU-55933] and give its measured pIC50.
< 5.00
